Kindly supply the reported cAMP production activity (%) values for the records listed here.
- target-or-system: human PTH1 receptor (Homo sapiens)
- method-summary: In vitro cAMP signal activity in HKRK-B7 cells (LLC-PK1 cells overexpressing the human PTH1 receptor)
- Assay type: cell-based
- conditions-used: HKRK-B7 cells; compound at 1×10^−3 M; cAMP produced as percentage of that produced by hPTH(1-34) at 100 nM
Supply the numeric figure in %, leaving out any unit text.

Summary line: `Cc1cc(N2C(=O)CNC2=O)cc(C)c1CCS(=O)(=O)N1CCC2(CC1)N=C(c1ccc(F)c(C(F)(F)F)c1)NC2=O` , human PTH1 receptor (Homo sapiens), reported cAMP production activity (%) = 77

Summary line: CC(=O)Nc1ccc(CCS(=O)(=O)N2CCC3(CC2)N=C(C2CCC(COCC(F)(F)F)CC2)NC3=O)c(C)c1 (stereo not drawn) , human PTH1 receptor (Homo sapiens), reported cAMP production activity (%) = 68

Summary line: `Cc1cc(N2C(=O)N(CCO)C(C)(C)C2=O)cc(C)c1/C=C/S(=O)(=O)N1CCC2(CC1)N=C(c1cccc(OC(F)(F)F)c1)NC2=O` , human PTH1 receptor (Homo sapiens), reported cAMP production activity (%) = 36

###

- target-or-system: human PTH1 receptor (Homo sapiens)
- method-summary: In vitro cAMP signal activity in HKRK-B7 cells (LLC-PK1 cells overexpressing the human PTH1 receptor)
- Type: cell-based
- conditions-used: HKRK-B7 cells; compound at 1×10^−3 M; cAMP produced as percentage of that produced by hPTH(1-34) at 100 nM
assay-endpoint: cAMP production activity (%)
Note: a bare number is incomplete; add the unit.

Query `O=C1NC(c2cccc(C(F)(F)F)c2)=NC12CCN(S(=O)(=O)c1ccc(Br)s1)CC2` yields cAMP production activity (%) of 61%

Query `Cc1cc(N(C)c2c(N(C)C)c(=O)c2=O)cc(C)c1CCS(=O)(=O)N1CCC2(CC1)N=C([C@H]1CC[C@H](C)CC1)NC2=O` yields cAMP production activity (%) of 30%

Query `Cc1cc2ccc1CCS(=O)(=O)N1CCC3(CC1)N=C(NC3=O)c1cc(cc(C(F)(F)F)c1)OCC/C=C\CCCCCCN(C)C2=O` yields cAMP production activity (%) of 49%

###

- target-or-system: human PTH1 receptor (Homo sapiens, UniProt Q03431)
- Sequence (Q03431 27-593): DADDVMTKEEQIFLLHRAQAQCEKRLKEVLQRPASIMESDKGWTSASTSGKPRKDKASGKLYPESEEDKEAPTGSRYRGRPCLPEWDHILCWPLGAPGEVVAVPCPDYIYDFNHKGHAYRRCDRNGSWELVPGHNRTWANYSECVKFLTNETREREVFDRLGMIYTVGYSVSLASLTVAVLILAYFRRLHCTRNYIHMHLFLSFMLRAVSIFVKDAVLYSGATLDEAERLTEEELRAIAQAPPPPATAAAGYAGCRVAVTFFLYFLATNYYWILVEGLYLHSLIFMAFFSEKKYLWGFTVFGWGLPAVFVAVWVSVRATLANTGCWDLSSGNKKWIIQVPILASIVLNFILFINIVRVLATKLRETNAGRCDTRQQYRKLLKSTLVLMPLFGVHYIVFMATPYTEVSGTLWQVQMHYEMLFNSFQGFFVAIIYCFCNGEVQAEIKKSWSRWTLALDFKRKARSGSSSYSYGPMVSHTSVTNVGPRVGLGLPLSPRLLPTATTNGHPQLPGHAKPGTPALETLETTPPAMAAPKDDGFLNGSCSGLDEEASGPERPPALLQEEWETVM
- method-summary: In vitro cAMP signal activity in HKRK-B7 cells (LLC-PK1 cells overexpressing the human PTH1 receptor)
- Assay type: cell-based
- conditions-used: HKRK-B7 cells; compound at 1×10^−3 M; cAMP produced as percentage of that produced by hPTH(1-34) at 100 nM
Note: every record was labeled by where its cAMP production activity (%) sits among low range = under 70%, mid range = from 70% up to 90%, high range = 90% and over

IN: Category lookup for the compound `Cc1cc(N2C(=O)CNC2=O)cc(C)c1/C=C/S(=O)(=O)N1CCC2(CC1)N=C(c1cccc(OC(F)(F)F)c1)NC2=O`
OUT: high range

IN: Category lookup for the compound `Cc1cc(N(C)C(N)=O)cc(C)c1CCS(=O)(=O)N1CCC2(CC1)N=C(CCCCCCCCCCCNC(=O)OC(C)(C)C)NC2=O`
OUT: high range

IN: Category lookup for the compound `Cc1cc(C(=O)N2CCC(C)(O)CC2)cc(C)c1/C=C/S(=O)(=O)N1CCC2(CC1)N=C(c1ccc(OCC(F)(F)F)c(C(F)(F)F)c1)NC2=O`
OUT: mid range

IN: Category lookup for the compound `Cc1cnc(C2=NC3(CCN(S(=O)(=O)CCc4ccc(C(=O)N(C)C)cc4C)CC3)C(=O)N2)cn1`
OUT: low range

IN: Category lookup for the compound `Cc1cc(C(=O)N2CCC(O)(CF)CC2)cc(C)c1CCS(=O)(=O)N1CCC2(CC1)N=C(c1ccc(C(F)(F)F)c(OCC(F)(F)C(F)F)c1)NC2=O`
OUT: high range

IN: Category lookup for the compound O=C1NC(C2CCCN(S(=O)(=O)c3ccccc3)C2)=NC12CCN(S(=O)(=O)c1cccc(Cl)c1)CC2 (stereo not shown)
OUT: low range

IN: Category lookup for the compound `CCCCCc1ccc(C2=NC3(CCN(S(=O)(=O)CCc4c(C)cc(N(C)C(N)=O)cc4C)CC3)C(=O)N2)cc1`
OUT: high range

IN: Category lookup for the compound O=C1NC(C2CCCN(S(=O)(=O)CCc3cccc4ccccc34)C2)=NC12CCN(S(=O)(=O)CCc1cccc3ccccc13)CC2 (stereo not shown)
OUT: low range

IN: Category lookup for the compound `Cc1cc(C(=O)N2CCN(CCCN(C)C)CC2)cc(C)c1/C=C/S(=O)(=O)N1CCC2(CC1)N=C(c1cccc(OC(F)(F)F)c1)NC2=O`
OUT: high range

IN: Category lookup for the compound `Cc1cc2[nH]ccc2cc1CCS(=O)(=O)N1CCC2(CC1)N=C(C1CCCCC1)NC2=O`
OUT: low range

IN: Category lookup for the compound `O=C1NC(c2ccc(Cl)cc2Cl)=NC12CCN(S(=O)(=O)c1ccc(F)c(Cl)c1)CC2`
OUT: low range

IN: Category lookup for the compound `CCCCCCCC#CC1=NC2(CCN(S(=O)(=O)/C=C/c3c(C)cc(N(C)C(N)=O)cc3C)CC2)C(=O)N1`
OUT: mid range

IN: Category lookup for the compound `Cc1cc(N2NCCC2=O)ccc1/C=C/S(=O)(=O)N1CCC2(CC1)N=C([C@H]1CC[C@H](C)CC1)NC2=O`
OUT: mid range

###

Kindly supply the reported cAMP production activity (%) values for the records listed here.
- target-or-system: human PTH1 receptor (Homo sapiens)
- method-summary: In vitro cAMP signal activity in HKRK-B7 cells (LLC-PK1 cells overexpressing the human PTH1 receptor)
- Assay type: cell-based
- conditions-used: HKRK-B7 cells; compound at 1×10^−3 M; cAMP produced as percentage of that produced by hPTH(1-34) at 100 nM
Supply the numeric figure in %, leaving out any unit text.

Query `Cc1cc(C(=O)N2CCN(C(=O)CO)CC2)cc(C)c1/C=C/S(=O)(=O)N1CCC2(CC1)N=C(c1cccc(OC(F)(F)F)c1)NC2=O` yields cAMP production activity (%) of 89

Query `Cc1cc(C(=O)N(C)C)ccc1CCS(=O)(=O)N1CCC2(CC1)N=C(N(C)c1ccc(C(F)(F)F)cc1)NC2=O` yields cAMP production activity (%) of 49

Query Cc1cc(OCCC(O)CO)ccc1/C=C/S(=O)(=O)N1CCC2(CC1)N=C(c1ccc(F)c(OC(F)(F)F)c1)NC2=O (stereo not shown) yields cAMP production activity (%) of 144

Query `Cc1cc(C(=O)N(C)C)ccc1CCS(=O)(=O)N1CCC2(CC1)N=C(CCC1CCCCC1)NC2=O` yields cAMP production activity (%) of 62

Query `Cc1cc(N(C)C(N)=O)cc(C)c1CCS(=O)(=O)N1CCC2(CC1)N=C(C1CCCCCC1)NC2=O` yields cAMP production activity (%) of 87

Query O=C1NC(C2CCC(CCC(F)(F)F)CC2)=NC12CCN(S(=O)(=O)/C=C/c1cccc3c1ccn3CCOC[C@@H](O)CO)CC2 (stereo partly shown) yields cAMP production activity (%) of 68

Query `Cc1cc(N(C)C(N)=O)cc(C)c1CCS(=O)(=O)N1CCC2(CC1)N=C(CCCCCCCCCCCCCC(=O)O)NC2=O` yields cAMP production activity (%) of 22

Query CCC1CCC(C2=NC3(CCN(S(=O)(=O)CCc4c(C)cc(N(C)C(N)=O)cc4C)CC3)C(=O)N2)CC1 (stereo not shown) yields cAMP production activity (%) of 45

Query O=C1NC(C2CCCN(S(=O)(=O)Cc3ccccc3)C2)=NC12CCN(S(=O)(=O)CCc1cccc3ccccc13)CC2 (stereo not shown) yields cAMP production activity (%) of 39

Query CC(=O)N(CCOCCO)c1cc(C)c(CCS(=O)(=O)N2CCC3(CC2)N=C(C2CCC(CCC(F)(F)F)CC2)NC3=O)c(C)c1 (stereo not shown) yields cAMP production activity (%) of 98

Query Cc1cc2[nH]c(=O)[nH]c(=O)c2c(C)c1CCS(=O)(=O)N1CCC2(CC1)N=C(C1CCC(C)CC1)NC2=O (stereo not shown) yields cAMP production activity (%) of 46

Query `[2H]C([2H])([2H])C([2H])([2H])C([2H])([2H])C([2H])([2H])Oc1cc(C2=NC3(CCN(S(=O)(=O)/C=C/c4c(C)cc(C(=O)N5CCC(C)(O)CC5)cc4C)CC3)C(=O)N2)ccc1F` yields cAMP production activity (%) of 99

Query `COC(=O)Nc1ccc(C)c(CCS(=O)(=O)N2CCC3(CC2)N=C(C2CCCCC2)NC3=O)c1` yields cAMP production activity (%) of 74

###

- target-or-system: human PTH1 receptor (Homo sapiens, UniProt Q03431)
- method-summary: In vitro cAMP signal activity in HKRK-B7 cells (LLC-PK1 cells overexpressing the human PTH1 receptor)
- Format: cell-based
- conditions-used: HKRK-B7 cells; compound at 1×10^−3 M; cAMP produced as percentage of that produced by hPTH(1-34) at 100 nM
assay-endpoint: cAMP production activity (%)
Supply the numeric figure in %, leaving out any unit text.

Query `Cc1cc(S(N)(=O)=O)ccc1/C=C/S(=O)(=O)N1CCC2(CC1)N=C(c1cccc(C(F)(F)F)c1)NC2=O` yields cAMP production activity (%) of 74

Query `CCCCc1ccc2cc1OCCCCCOCCN(C)C(=O)c1ccc(c(C)c1)CCS(=O)(=O)N1CCC3(CC1)N=C2NC3=O` yields cAMP production activity (%) of 54

Query `Cc1cc(C(=O)N2CCC(OCCN(C)C)CC2)cc(C)c1/C=C/S(=O)(=O)N1CCC2(CC1)N=C(c1cccc(OC(F)(F)F)c1)NC2=O` yields cAMP production activity (%) of 49

Query `Cc1cc(N2C(=O)N(C)C(C)(C)C2=O)cc(C)c1/C=C/S(=O)(=O)N1CCC2(CC1)N=C(c1cccc(OC(F)(F)F)c1)NC2=O` yields cAMP production activity (%) of 25

Query `[2H]C([2H])([2H])C([2H])([2H])Oc1cc(C2=NC3(CCN(S(=O)(=O)/C=C/c4c(C)cc(C(=O)N5CCC(O)(CF)CC5)cc4C)CC3)C(=O)N2)ccc1F` yields cAMP production activity (%) of 71

Query `Cc1cc(N(C)C(N)=O)cc(C)c1CCS(=O)(=O)N1CCC2(CC1)N=C(CCCCCCCCCC(=O)O)NC2=O` yields cAMP production activity (%) of 48

Query `Cc1cc(C(=O)N(C)C)ccc1CCS(=O)(=O)N1CCC2(CC1)N=C(C1(C(F)(F)F)CC1)NC2=O` yields cAMP production activity (%) of 72

Query `Cc1cc(N(C)C(N)=O)cc(C)c1CCS(=O)(=O)N1CCC2(CC1)N=C(c1ccc3c(c1)CCCC3)NC2=O` yields cAMP production activity (%) of 103

Query `O=C1NC(C2CCCCCC2)=NC12CCN(S(=O)(=O)/C=C/c1cccc3c1ccn3C[C@H](O)CO)CC2` yields cAMP production activity (%) of 49

Query `Cc1cc(N(C)C(N)=O)cc(C)c1CCS(=O)(=O)N1CCC2(CC1)N=C(c1cccc(OCCCC(F)(F)C(F)(F)F)c1)NC2=O` yields cAMP production activity (%) of 84

Query `Cc1cc(C(=O)N2CC[C@@H](N)C2)cc(C)c1/C=C/S(=O)(=O)N1CCC2(CC1)N=C(c1cccc(OC(F)(F)F)c1)NC2=O` yields cAMP production activity (%) of 88

Query `Cc1cc(C(=O)N2CCC(O)(CO)CC2)cc(C)c1/C=C/S(=O)(=O)N1CCC2(CC1)N=C(c1ccc(F)c(C(F)(F)F)c1)NC2=O` yields cAMP production activity (%) of 83

Query `Cc1cc(C(=O)N2CC(C)(O)C2)cc(C)c1/C=C/S(=O)(=O)N1CCC2(CC1)N=C(c1ccc(F)c(C(F)(F)F)c1)NC2=O` yields cAMP production activity (%) of 112
